Reported IC50 values follow for various molecules
Test system: Babesia divergens
Experiment: Antimicrobial activity against Babesia divergens 1903B
Format: functional, organism-based
Give a bare numeral; the unit µg/mL is implied.

molecule	assay_metric	unit_text	obs_value
CC(C)(N)CNC(=O)CC1CC[C@]2(CC1)OC[C@]1(O2)C2CC3CC(C2)CC1C3 (stereo not given in full)	IC50	µg/mL	6.7

We next turn to a different molecule, shown below.
Problem: Fill in: IC50 on Babesia divergens, entry O=C1C(O)=C([C@H]2CC[C@H](c3ccc(Cl)cc3)CC2)C(=O)c2ccccc21 [ATOVAQUONE]
Solution: 0.0091

----------
Reported IC50 values follow for various compounds
System: Babesia divergens
Assay: Antimicrobial activity against Babesia divergens 1903B
Type: functional, organism-based

smiles	target_or_test_system	IC50
C[C@@H]1CC[C@H]2[C@@H](C)C(=O)O[C@@H]3O[C@@]4(C)CC[C@@H]1[C@]32O4	Babesia divergens	> 10 µg/mL
CC(C)(N)CNC(=O)C[C@H]1CC[C@]2(CC1)OO[C@]1(O2)C2CC3CC(C2)CC1C3	Babesia divergens	> 10 µg/mL

We next turn to a different compound, shown below.
Problem: Identify measured IC50 corresponding to C[C@@H]1CC[C@H]2[C@@H](C)C(=O)O[C@@H]3O[C@@]4(C)CC[C@@H]1[C@]32OO4
Solution: > 10 µg/mL
